targetOrTestSystem: Phosphatidylinositol 4,5-bisphosphate 3-kinase catalytic subunit delta isoform (Mus musculus, UniProt O35904)
Sequence (O35904 whole entry, canonical isoform): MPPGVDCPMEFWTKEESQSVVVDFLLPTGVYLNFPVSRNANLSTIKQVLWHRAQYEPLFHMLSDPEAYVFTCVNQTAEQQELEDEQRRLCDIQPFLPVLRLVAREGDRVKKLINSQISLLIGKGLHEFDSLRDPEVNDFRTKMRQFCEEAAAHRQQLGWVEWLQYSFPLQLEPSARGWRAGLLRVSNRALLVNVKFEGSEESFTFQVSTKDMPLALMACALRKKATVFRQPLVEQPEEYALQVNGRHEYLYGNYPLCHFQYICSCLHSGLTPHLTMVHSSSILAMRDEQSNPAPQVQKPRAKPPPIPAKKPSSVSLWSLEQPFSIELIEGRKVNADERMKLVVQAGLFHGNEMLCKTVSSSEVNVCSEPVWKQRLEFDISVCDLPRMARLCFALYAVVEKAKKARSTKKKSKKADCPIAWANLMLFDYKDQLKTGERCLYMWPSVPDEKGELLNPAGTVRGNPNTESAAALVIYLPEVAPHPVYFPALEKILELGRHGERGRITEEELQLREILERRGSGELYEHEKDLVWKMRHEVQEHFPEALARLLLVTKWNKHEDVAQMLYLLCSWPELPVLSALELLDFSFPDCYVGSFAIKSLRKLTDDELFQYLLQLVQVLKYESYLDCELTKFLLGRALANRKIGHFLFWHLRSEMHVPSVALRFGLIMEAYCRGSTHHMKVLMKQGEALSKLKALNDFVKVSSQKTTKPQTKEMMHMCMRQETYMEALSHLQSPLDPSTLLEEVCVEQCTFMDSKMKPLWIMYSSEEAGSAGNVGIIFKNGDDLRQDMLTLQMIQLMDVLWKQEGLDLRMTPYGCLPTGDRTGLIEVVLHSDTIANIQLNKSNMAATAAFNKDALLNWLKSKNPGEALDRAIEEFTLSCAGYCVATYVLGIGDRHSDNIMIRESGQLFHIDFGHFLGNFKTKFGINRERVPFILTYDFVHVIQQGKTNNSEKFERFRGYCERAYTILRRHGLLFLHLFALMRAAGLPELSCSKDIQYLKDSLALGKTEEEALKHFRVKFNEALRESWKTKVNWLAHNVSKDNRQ
assaySummary: Inhibition of PI3K-delta in mouse splenocytes assessed as inhibition anti-IgM induced CD86 expression
measuredQuantity: IC50 (nM)

| entrySmiles | experimentalResult |
| --- | --- |
| CCC(=O)N1CC[C@H](Oc2ncnc3ccc(-c4ccc(OC)nc4)cc23)C1 | 82 |

1 = CCC(=O)N1CC[C@H](Oc2ccnc3ccc(-c4ccc(OC)nc4)cc23)C1
2 = CCC(=O)N1CC[C@@H](Oc2cnc3ccc(-c4ccc(OC)c(OC)c4)cc3n2)C1
Larger number for IC50: 1 , or 2 ? Answer with the label corresponding to your selection.
1
(1: 155 nM, 2: 85 nM)

###

assaySummary: Inhibition of PI3K-delta in rat whole blood assessed as inhibition of anti-IgM/IL4 induced CD86 expression
Format: tissue-based
pIC50: −log10 of the molar value.
measuredQuantity: pIC50

| entrySmiles | pIC50 |
| --- | --- |
| CCC(=O)N1CC[C@H](Oc2ncnc3ccc(-c4ccc(OC)nc4)cc23)C1 | 6.53 |
| CCC(=O)N1CC[C@@H](Oc2cnc3ccc(-c4ccc(OC)c(OC)c4)cc3n2)C1 | 6.55 |
| CCC(=O)N1CC[C@H](Oc2ccnc3ccc(-c4ccc(OC)nc4)cc23)C1 | 6.42 |

###

targetOrTestSystem: Phosphatidylinositol 4,5-bisphosphate 3-kinase catalytic subunit gamma isoform (Homo sapiens)
assaySummary: Inhibition of PI3K-gamma (unknown origin) by KinaseGlo assay
measuredQuantity: IC50 (nM)

Reference set, count: 5
| entrySmiles | unitAbbrev | IC50 |
| --- | --- | --- |
| CCC(=O)N1CC[C@H](Oc2ccnc3ccc(-c4ccc(OC)nc4)nc23)C1 | nM | 2940 |
| CCC(=O)N1CC[C@H](Oc2ncnc3ccc(-c4cnc(OC)c(C#N)c4)cc23)C1 | nM | 978 |
| CCC(=O)N1CC[C@@H](Oc2cnc3ccc(-c4ccc(OC)c(OC)c4)cc3n2)C1 | nM | 366 |
| CCC(=O)N1CC[C@H](Oc2ccnc3ccc(-c4ccc(OC)nc4)cc23)C1 | nM | 828 |
| COc1ccc(-c2ccc3ncnc(O[C@@H]4CCN(C)C4)c3c2)cc1OC | nM | 2070 |

A = COc1ccc(-c2ccc3ncnc(O[C@@H]4CCN(C(=O)OC(C)(C)C)C4)c3c2)cc1OC
B = COc1ccc(-c2ccc3ncnc(O[C@H]4CCN(C)C4)c3c2)cc1OC
// which entry reports the smaller IC50, A or B ? Answer with the label corresponding to your selection.
A
(A: 642 nM, B: 1210 nM)

P = COc1ccc(-c2ccc3ncnc(O[C@H]4CCN(C(=O)OC(C)(C)C)C4)c3c2)cc1OC
Q = CCC(=O)N1CC[C@H](Oc2cnc3ccc(-c4ccc(OC)c(OC)c4)cc3n2)C1
// which entry reports the smaller IC50, P or Q ? Answer with the label corresponding to your selection.
P
(P: 282 nM, Q: 3780 nM)

###

targetOrTestSystem: Phosphatidylinositol 4,5-bisphosphate 3-kinase catalytic subunit gamma isoform (Homo sapiens, UniProt P48736)
Sequence (P48736 whole entry, canonical isoform): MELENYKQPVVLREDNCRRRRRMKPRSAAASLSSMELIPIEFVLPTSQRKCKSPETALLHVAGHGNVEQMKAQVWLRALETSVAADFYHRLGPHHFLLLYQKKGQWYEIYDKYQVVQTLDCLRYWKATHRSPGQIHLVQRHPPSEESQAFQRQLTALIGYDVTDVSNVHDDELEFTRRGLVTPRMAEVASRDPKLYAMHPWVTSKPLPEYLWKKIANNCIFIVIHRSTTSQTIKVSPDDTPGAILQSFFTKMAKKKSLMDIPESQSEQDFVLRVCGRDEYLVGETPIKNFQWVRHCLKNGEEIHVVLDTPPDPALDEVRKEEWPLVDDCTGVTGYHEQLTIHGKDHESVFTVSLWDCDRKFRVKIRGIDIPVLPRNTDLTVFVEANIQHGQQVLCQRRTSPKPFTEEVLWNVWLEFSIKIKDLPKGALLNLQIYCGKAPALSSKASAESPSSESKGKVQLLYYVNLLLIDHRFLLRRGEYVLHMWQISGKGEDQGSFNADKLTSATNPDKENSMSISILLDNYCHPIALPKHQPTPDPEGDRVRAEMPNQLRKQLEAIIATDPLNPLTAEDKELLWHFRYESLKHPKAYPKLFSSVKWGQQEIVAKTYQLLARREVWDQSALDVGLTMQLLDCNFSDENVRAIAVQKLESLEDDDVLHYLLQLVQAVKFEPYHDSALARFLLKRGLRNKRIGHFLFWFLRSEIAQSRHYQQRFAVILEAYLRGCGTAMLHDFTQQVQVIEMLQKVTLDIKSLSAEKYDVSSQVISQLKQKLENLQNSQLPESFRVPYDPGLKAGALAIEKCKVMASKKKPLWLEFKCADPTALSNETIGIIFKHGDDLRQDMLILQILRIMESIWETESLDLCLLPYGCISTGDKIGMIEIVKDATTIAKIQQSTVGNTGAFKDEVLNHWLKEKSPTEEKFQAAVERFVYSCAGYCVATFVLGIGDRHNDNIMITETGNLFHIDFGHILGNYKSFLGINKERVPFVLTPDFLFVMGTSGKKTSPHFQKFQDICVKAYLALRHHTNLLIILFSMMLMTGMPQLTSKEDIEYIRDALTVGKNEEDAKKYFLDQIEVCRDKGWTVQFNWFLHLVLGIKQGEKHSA
assaySummary: Inhibition of PI3K-gamma (unknown origin) by KinaseGlo assay
measuredQuantity: IC50 (nM)

P = COc1ccc(-c2ccc3ncnc(O[C@H]4CCN(C(C)=O)C4)c3c2)cc1OC
Q = CCC(=O)N1CC[C@H](Oc2ncnc3ccc(-c4ccc(OC)nc4)cc23)C1
R = COc1ccc(-c2ccc3ncnc(O[C@@H]4CCN(C(C)=O)C4)c3c2)cc1OC
Please rank these compounds by IC50 in descending order. Give your ranking as a list of the labels in the requested order.
R, Q, P
(R: 1230 nM, Q: 698 nM, P: 194 nM)
